Test system: Enterobacter cloacae
PROCEDURE_TEXT: Antibacterial activity against Enterobacter cloacae 34 after 18 to 24 hrs by agar dilution method
Type: functional
RESULT_TYPE: MIC (µg/mL)

compound="C[C@@H](O)C1C(=O)N2C(C(=O)O)=C(S[C@@H]3CN[C@H](CN4CCNS4(=O)=O)C3)[C@H](C)C12 (stereo partly drawn)" result_type=MIC endpoint_result=0.049
compound="C[C@@H](O)C1C(=O)N2C(C(=O)O)=C(S[C@@H]3CN[C@H](CN4CCOS4(=O)=O)C3)[C@H](C)C12 (stereo partly drawn)" result_type=MIC endpoint_result=0.098
compound="C[C@@H](O)C1C(=O)N2C(C(=O)O)=C(S[C@@H]3CN[C@H](CN4CCN(Cc5ccccc5)S4(=O)=O)C3)[C@H](C)C12 (stereo partly drawn)" result_type=MIC endpoint_result=0.781
